Entries annotated with measured EC50
Subject Of Test: human PPARγ2 (Homo sapiens, UniProt P37231)
Construct: the amino acids 182 to 505 of human PPARγ2; expressed in transfected cells; host or cells: COS7 cells
Sequence (P37231 182-505): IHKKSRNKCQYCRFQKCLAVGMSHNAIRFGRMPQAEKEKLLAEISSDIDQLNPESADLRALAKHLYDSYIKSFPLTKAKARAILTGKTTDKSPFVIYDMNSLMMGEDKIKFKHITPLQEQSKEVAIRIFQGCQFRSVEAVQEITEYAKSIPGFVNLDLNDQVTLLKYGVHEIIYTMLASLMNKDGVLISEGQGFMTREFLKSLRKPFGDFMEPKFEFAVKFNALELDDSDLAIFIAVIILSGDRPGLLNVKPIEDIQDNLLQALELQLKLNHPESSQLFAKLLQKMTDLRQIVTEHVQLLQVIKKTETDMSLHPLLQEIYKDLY
Sequence (P04386 1-147 partner limits assumed): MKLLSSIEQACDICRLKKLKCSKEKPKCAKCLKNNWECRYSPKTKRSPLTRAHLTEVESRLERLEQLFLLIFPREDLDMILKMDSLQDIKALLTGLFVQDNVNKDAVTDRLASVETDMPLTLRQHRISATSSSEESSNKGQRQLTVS
Assay Remarks: PPARγ activation activity, Gal4 chimera luciferase transfection assay using COS7 cells
Type: cell-based
Run Conditions: COS7 cells, Gal4-human PPARγ2 LBD chimera, luciferase reporter, 16 hours; read-out: EC50
Dear colleague, please return just the value in nM, with no unit written.

Below, each entry is followed by its recorded EC50 result.
INSERT INTO assay_data (compound, subject_of_test, unit_name, result) VALUES
  ('CCCCc1nc(C)n(-c2ncc(OCCC)cn2)c(=O)c1Cc1ccc(-c2ccccc2-c2nnn[nH]2)cc1 [Example 22]', 'human PPARγ2 (Homo sapiens, UniProt P37231)', 'nM', 590),
  ('CCCCc1nc(C)n(-c2nc3ccccc3s2)c(=O)c1Cc1ccc(-c2ccccc2-c2nnn[nH]2)cc1 [Example 70]', 'human PPARγ2 (Homo sapiens, UniProt P37231)', 'nM', 690),
  ('CCCCc1nc(C)n(-c2ccc(C)cn2)c(=O)c1Cc1ccc(-c2ccccc2-c2nnn[nH]2)cc1 [Example 2]', 'human PPARγ2 (Homo sapiens, UniProt P37231)', 'nM', 4150);

(Q) Determine its reported EC50: CCCCc1nc(C)n(-c2ncc(OCc3ccccc3)cn2)c(=O)c1Cc1ccc(-c2ccccc2-c2nnn[nH]2)cc1 [Example 19]
(A) 2550

(Q) Determine its reported EC50: CCCCc1nc(C)n(-c2ncc(Br)cn2)c(=O)c1Cc1ccc(-c2ccccc2-c2nnn[nH]2)cc1 [Example 16]
(A) 2410

(Q) Determine its reported EC50: CCCCc1nc(C)n(-c2ncc(OCCCNS(=O)(=O)C(F)(F)F)cn2)c(=O)c1Cc1ccc(-c2ccccc2-c2nnn[nH]2)cc1 [Example 58]
(A) 1910
